Entry source: ChEMBL document CHEMBL1137010

system: PAM212; assay: Drug uptake in mouse PAM212 cells assessed as PpIX production per mg of protein at 0.1 mM after 4 hrs; assay type: ADME, cell-based; details: pam212, 4 h, 100 µM
I'd appreciate it if you marked entries yes when Drug uptake is lower than 40 ng/mg and no when it is not.

Solved cases (5 shown):
1) COC(=O)CCC(=O)CNC(=O)[C@H](Cc1ccccc1)NC(C)=O
no
2) COC(=O)CCC(=O)CNC(=O)[C@H](CO)NC(C)=O
yes
3) COC(=O)CCC(=O)CNC(=O)[C@H](CC(C)C)NC(C)=O
no
4) COC(=O)CCC(=O)CNC(=O)[C@H](C)NC(C)=O
yes
5) COC(=O)CCC(=O)CNC(=O)[C@H](CCC(=O)O)NC(C)=O
no

Query: State whether 40 ng/mg exceeds Drug uptake recorded for COC(=O)CCC(=O)CNC(=O)[C@@H](Cc1ccccc1)NC(C)=O .
Result: yes

Query: State whether 40 ng/mg exceeds Drug uptake recorded for COC(=O)CCC(=O)CNC(=O)[C@H](CCSC)NC(C)=O .
Result: no

* * *

test system: PAM212; experiment: Drug uptake in mouse PAM212 cells assessed as PpIX production per mg of protein at 1 mM after 4 hrs; assay type: ADME, cell-based; details: pam212, 4 h, 1000 µM
I'd appreciate it if you marked entries y when Drug uptake is lower than 200 ng/mg and n when it is not.

Solved cases (4 shown):
1. COC(=O)CCC(=O)CNC(=O)[C@H](CO)NC(C)=O
n
2. COC(=O)CCC(=O)CNC(=O)[C@H](CCC(=O)O)NC(C)=O
n
3. COC(=O)CCC(=O)CNC(=O)[C@H](CCSC)NC(C)=O
n
4. COC(=O)CCC(=O)CNC(=O)[C@H](CC(=O)O)NC(C)=O
y

Query: State whether 200 ng/mg exceeds Drug uptake recorded for COC(=O)CCC(=O)CNC(=O)[C@H](Cc1c[nH]c2ccccc12)NC(C)=O .
Result: y

Query: State whether 200 ng/mg exceeds Drug uptake recorded for NCC(=O)CCC(=O)O .
Result: n

Query: State whether 200 ng/mg exceeds Drug uptake recorded for COC(=O)CCC(=O)CNC(=O)[C@H](CCCCN)NC(C)=O .
Result: y

Query: State whether 200 ng/mg exceeds Drug uptake recorded for COC(=O)CCC(=O)CNC(=O)[C@H](CC(C)C)NC(C)=O .
Result: n

Query: State whether 200 ng/mg exceeds Drug uptake recorded for CC[C@H](C)[C@H](NC(C)=O)C(=O)NCC(=O)CCC(=O)OC .
Result: y

* * *

system: PAM212; test: Drug uptake in mouse PAM212 cells assessed as intracellular 5-aminolaevulinic acid level per mg of protein at 1 mM after 4 hrs; type: ADME, cell-based; conditions: pam212, 4 h, 1000 µM
I'd appreciate it if you marked entries class 1 when Drug uptake is lower than 4 µg/mg and class 0 when it is not.

Solved cases (8 shown):
1. CC[C@H](C)[C@H](NC(C)=O)C(=O)NCC(=O)CCC(=O)OC
class 0
2. NCC(=O)CCC(=O)O [AMINOLEVULINIC ACID]
class 1
3. COC(=O)CCC(=O)CNC(=O)[C@H](CCCCN)NC(C)=O
class 1
4. CCCCCCOC(=O)CCC(=O)CNC(=O)[C@H](Cc1ccccc1)NC(C)=O
class 0
5. COC(=O)CCC(=O)CNC(=O)[C@H](CC(=O)O)NC(C)=O
class 1
6. COC(=O)CCC(=O)CNC(=O)[C@H](Cc1ccccc1)NC(C)=O
class 0
7. COC(=O)CCC(=O)CNC(=O)[C@H](CC(C)C)NC(C)=O
class 0
8. COC(=O)CCC(=O)CNC(=O)[C@H](CCSC)NC(C)=O
class 0

Query: State whether 4 µg/mg exceeds Drug uptake recorded for COC(=O)CCC(=O)CNC(=O)[C@@H](Cc1ccccc1)NC(C)=O .
Result: class 0

Query: State whether 4 µg/mg exceeds Drug uptake recorded for COC(=O)CCC(=O)CNC(=O)[C@H](Cc1c[nH]c2ccccc12)NC(C)=O .
Result: class 0

Query: State whether 4 µg/mg exceeds Drug uptake recorded for COC(=O)CCC(=O)CNC(=O)[C@H](CCC(=O)O)NC(C)=O .
Result: class 0

Query: State whether 4 µg/mg exceeds Drug uptake recorded for COC(=O)CCC(=O)CNC(=O)[C@H](CO)NC(C)=O .
Result: class 1
